Molecular target: PIK3CG (human)
Assay: Inhibition of PIK3CG Kinase Activity
pKd: −log10 of the molar value.
quantity measured: pKd

| chemical smiles | reading |
| --- | --- |
| CC1(C)CCN(C(=O)c2ccc(NC(=O)Nc3ccc(-c4nc(O[C@H]5CCOC5)nc(N5CCOCC5)n4)cc3)cc2)CC1 | 8.19 |

###

Target: PIK3CA (human)
Experiment: Enzyme Assay
pKi: −log10 of the molar value.
Entries annotated with measured pKi
quantity measured: pKi

| chemical smiles | bound type | reading |
| --- | --- | --- |
| CCNC(=O)Nc1ccc(-c2nc(N3CCCOCC3)c3c(ncn3C)n2)cc1 | = | 5.19 |
| CCNC(=O)Nc1ccc(-c2nc(N3CCOC[C@@H]3CC)c3c(ncn3C)n2)cc1 | < | 5.00 |
| CCNC(=O)Nc1ccc(-c2nc(N3CCOC[C@H]3C)c3c(ncn3C)n2)cc1 | = | 5.24 |

###

# IC50 measurements, system: EGFR (UniProt P00533)
# Sequence (P00533 whole entry, looked up): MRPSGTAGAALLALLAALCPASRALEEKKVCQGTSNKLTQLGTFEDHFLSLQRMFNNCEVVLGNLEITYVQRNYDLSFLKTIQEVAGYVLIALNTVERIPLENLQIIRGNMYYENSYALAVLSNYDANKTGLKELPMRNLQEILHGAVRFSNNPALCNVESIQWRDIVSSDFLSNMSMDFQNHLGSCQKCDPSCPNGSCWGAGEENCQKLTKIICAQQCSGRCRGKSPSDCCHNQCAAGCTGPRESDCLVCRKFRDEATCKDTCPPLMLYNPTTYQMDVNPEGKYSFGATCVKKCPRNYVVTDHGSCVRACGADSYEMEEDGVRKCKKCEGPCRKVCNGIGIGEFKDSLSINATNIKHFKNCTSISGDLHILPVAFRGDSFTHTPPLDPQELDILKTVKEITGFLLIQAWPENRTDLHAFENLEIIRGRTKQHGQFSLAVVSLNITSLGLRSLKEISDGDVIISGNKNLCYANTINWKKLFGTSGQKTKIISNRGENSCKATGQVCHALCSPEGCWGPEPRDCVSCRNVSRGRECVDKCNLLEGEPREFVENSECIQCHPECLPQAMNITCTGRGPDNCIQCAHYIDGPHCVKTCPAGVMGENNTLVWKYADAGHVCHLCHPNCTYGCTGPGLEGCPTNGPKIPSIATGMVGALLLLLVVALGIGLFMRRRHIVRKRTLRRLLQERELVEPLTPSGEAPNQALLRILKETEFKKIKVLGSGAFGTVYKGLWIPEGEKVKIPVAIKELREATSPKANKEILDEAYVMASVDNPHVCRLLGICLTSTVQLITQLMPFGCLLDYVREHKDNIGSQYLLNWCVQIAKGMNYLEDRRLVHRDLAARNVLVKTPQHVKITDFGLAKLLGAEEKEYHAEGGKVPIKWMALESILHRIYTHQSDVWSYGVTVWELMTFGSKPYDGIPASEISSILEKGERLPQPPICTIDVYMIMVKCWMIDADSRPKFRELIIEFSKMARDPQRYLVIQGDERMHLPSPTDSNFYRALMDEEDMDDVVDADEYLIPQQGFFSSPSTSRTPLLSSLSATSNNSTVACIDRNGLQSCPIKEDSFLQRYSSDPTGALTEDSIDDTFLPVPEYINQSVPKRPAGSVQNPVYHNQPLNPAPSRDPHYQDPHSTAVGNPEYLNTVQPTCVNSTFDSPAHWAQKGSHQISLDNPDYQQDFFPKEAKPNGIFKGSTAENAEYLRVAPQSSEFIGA

| chemical smiles | test target | IC50 [nM] |
| --- | --- | --- |
| COc1cc2ncnc(Nc3ccc4[nH]ccc4c3)c2cc1OC | EGFR (UniProt P00533) | 3 |
| c1ccc2c(Nc3ccc4[nH]ccc4c3)ncnc2c1 | EGFR (UniProt P00533) | 300 |
| COc1cc2ncnc(Nc3ccc4c(ccn4Cc4ccccc4)c3)c2cc1OC | EGFR (UniProt P00533) | 10000 |

###

# pIC50 measurements, system: UniProt:P00533
pIC50: −log10 of the molar value.

| chemical smiles | pIC50 |
| --- | --- |
| Cn1ccc2cc3c(Nc4cccc(Br)c4)ncnc3cc21 | 9.30 |
| Cc1cccc(Nc2cc(Nc3cccc(N(C)C)c3OCCO)ncn2)c1 | 9.00 |

###

Target: EGFR (human)
Details: huvec
quantity measured: IC50 (nM)

| chemical smiles | reading |
| --- | --- |
| COc1cc2c(Nc3ccc(Br)cc3F)ncnc2cc1OCC1CCN(C(=O)CN(C)C)CC1 | 100 |

###

Entries annotated with measured IC50
Target: EGFR (UniProt P00533)
Conditions: balb/c 3t3

| molecule | value unit | IC50 |
| --- | --- | --- |
| Clc1cccc(Nc2ncnc3[nH]c4ccccc4c23)c1 | nM | 100 |
| Clc1cccc(Nc2ncnc3c2C2CCCCC2N3)c1 (stereo not drawn) | nM | 300 |
| Brc1cccc(Nc2ncnc3c2C2CCCCC2N3)c1 (stereo not drawn) | nM | 500 |

###

Biological target: ROCK2 (human) (UniProt O75116)
Sequence (O75116 whole entry, looked up): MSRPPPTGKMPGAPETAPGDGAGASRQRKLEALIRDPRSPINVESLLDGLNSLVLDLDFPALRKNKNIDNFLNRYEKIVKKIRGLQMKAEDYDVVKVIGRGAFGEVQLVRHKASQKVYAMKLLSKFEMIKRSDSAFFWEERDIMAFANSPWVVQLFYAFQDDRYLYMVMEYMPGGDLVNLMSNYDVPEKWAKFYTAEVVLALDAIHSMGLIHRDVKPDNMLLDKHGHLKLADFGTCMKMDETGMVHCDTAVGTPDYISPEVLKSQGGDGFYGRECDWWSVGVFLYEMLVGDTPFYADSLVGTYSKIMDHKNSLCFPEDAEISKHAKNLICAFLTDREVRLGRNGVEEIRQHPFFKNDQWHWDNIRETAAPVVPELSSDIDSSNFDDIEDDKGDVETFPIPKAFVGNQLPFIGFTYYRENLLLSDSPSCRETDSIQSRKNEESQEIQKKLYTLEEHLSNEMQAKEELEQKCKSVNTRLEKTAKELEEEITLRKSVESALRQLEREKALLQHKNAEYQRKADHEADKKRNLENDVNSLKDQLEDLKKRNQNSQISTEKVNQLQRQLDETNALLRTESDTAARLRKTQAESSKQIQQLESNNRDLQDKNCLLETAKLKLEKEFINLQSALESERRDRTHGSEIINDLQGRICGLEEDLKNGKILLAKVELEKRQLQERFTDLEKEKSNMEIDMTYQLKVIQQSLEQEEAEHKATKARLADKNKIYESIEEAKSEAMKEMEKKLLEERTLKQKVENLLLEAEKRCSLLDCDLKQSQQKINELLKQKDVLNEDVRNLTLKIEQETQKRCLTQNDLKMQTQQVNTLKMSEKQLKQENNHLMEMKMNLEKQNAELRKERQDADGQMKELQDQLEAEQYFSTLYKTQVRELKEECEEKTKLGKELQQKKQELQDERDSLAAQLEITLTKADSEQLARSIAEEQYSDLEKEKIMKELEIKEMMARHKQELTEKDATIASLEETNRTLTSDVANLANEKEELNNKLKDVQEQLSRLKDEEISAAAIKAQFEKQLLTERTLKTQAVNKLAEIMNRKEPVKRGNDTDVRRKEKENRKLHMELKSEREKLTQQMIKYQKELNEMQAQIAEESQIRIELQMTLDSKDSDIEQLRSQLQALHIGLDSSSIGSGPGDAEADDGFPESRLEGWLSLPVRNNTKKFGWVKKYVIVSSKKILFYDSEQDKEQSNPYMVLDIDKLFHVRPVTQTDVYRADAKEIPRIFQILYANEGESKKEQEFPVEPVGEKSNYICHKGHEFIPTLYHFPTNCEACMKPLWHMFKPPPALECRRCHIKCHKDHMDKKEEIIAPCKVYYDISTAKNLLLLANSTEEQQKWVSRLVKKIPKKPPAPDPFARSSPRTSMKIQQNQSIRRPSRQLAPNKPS
Experiment: Assessment of ROCK2 Kinase Acitvity
quantity measured: IC50

| chemical smiles | reading |
| --- | --- |
| NC[C@@](O)(c1ccc(Cl)cc1)c1ccc(-c2cn[nH]c2)cc1 | < 0.01 µM |

###

Entries annotated with measured EC50
Target: EGFR (human)
Conditions: a431

| chemical smiles | EC50 [µM] |
| --- | --- |
| COCCOc1cc2ncnc(Nc3ccc4[nH]ccc4c3)c2cc1NC(=O)C=C1CCNCC1 | 0.013 |
| CCOc1cc2ncc(C#N)c(Nc3ccc(OCc4ccccn4)c(Cl)c3)c2cc1NC(=O)C=C1CCNCC1 | 0.16 |
| O=C(C=C1CCNC1)Nc1ccc2ncnc(Nc3cccc(Br)c3)c2c1 | 13 |
| O=C(C=C1CCNCC1)Nc1ccc2ncnc(Nc3ccc4[nH]ccc4c3)c2c1 | 0.3 |

###

Molecular target: EGFR (UniProt P00533)

| chemical smiles | IC50 |
| --- | --- |
| CCc1cccc(CC)c1NC(=O)N1Cc2[nH]nc(NC(=O)c3ccc(N4CCN(C)CC4)cc3)c2C1 | > 10 µM |

###

Target: EGFR (UniProt P00533)

| chemical smiles | IC50 |
| --- | --- |
| c1ccc(-c2cnc(Nc3ccc(OCCN4CCCC4)cc3)s2)cc1 | > 10 µM |

###

Target: MAPK14 (human) (UniProt Q16539)
Sequence (Q16539 whole entry, looked up): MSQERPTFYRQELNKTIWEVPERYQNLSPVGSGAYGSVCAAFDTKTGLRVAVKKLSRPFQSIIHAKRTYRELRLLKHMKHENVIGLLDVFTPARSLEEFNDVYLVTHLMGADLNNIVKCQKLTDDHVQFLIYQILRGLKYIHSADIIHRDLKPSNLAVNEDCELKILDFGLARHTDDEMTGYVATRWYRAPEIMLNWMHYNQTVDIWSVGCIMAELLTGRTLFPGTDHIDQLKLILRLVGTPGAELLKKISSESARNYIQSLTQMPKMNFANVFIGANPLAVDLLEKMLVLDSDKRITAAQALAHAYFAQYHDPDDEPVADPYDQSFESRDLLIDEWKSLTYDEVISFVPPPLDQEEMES
Assay: Inhibition of TNF-alpha Release from LPS Stimulated hPBMCs
Settings: pbmc
pIC50: −log10 of the molar value.
quantity measured: pIC50

| chemical smiles | test target | quantity measured | reading |
| --- | --- | --- | --- |
| Cc1ccc(S(=O)(=O)Nc2ccc3c(c2)CNC(=O)N3c2c(Cl)cccc2Cl)cc1 | MAPK14 (human) (UniProt Q16539) | pIC50 | < 5.00 |

###

Target: MAPK14 (UniProt Q16539)
Sequence (Q16539 whole entry, looked up): as the sequence (Q16539 whole entry, looked up) above
Assay: Inhibition of MAPK Kinase Activity
pIC50: −log10 of the molar value.
Entries annotated with measured pIC50

| chemical smiles | pIC50 |
| --- | --- |
| Clc1cccc(Nc2cncc(-c3cncc(NCCCn4cccn4)c3)n2)c1 | < 5.00 |
| Clc1cccc(Nc2cncc(-c3cncc(NCCCc4cccnc4)c3)n2)c1 | < 5.00 |
| CN(C)CCNc1cncc(-c2cncc(Nc3cccc(Cl)c3)n2)c1 | < 5.00 |
| N[C@H](COc1cncc(-c2ccc3[nH]ncc3c2)c1)Cc1c[nH]c2ccccc12 | 4.92 |
| OCCCNc1cncc(-c2cncc(Nc3cccc(Cl)c3)n2)c1 | < 5.00 |
| N[C@H](COc1cncc(-c2cc3cn[nH]c3cn2)c1)Cc1c[nH]c2ccccc12 | 6.12 |
| Clc1cccc(Nc2cncc(-c3cncc(NCCCn4cncn4)c3)n2)c1 | < 5.00 |
| OCCCCNc1cncc(-c2cncc(Nc3cccc(Cl)c3)n2)c1 | < 5.00 |

###

Molecular target: EGFR (murine)
Settings: f/l-herc
pIC50: −log10 of the molar value.
Entries annotated with measured pIC50

| molecule | pIC50 |
| --- | --- |
| O=C(N(c1ncc2ncnc(Nc3ccc(F)c(Cl)c3)c2n1)C1CCNCC1)C(F)(F)F | < 4.70 |
| CN1C2CC[C@]1(Nc1ncc3ncnc(Nc4ccc(F)c(Cl)c4)c3n1)CC(O)C2 (stereo partly drawn) | < 5.00 |
| CN1C2CC[C@@]1(Nc1ncc3ncnc(Nc4ccc(F)c(Cl)c4)c3n1)CC(O)C2 (stereo partly drawn) | < 5.00 |

###

# inhibition measurements, system: EGFR (UniProt P00533)
quantity measured: inhibition

| chemical smiles | reading |
| --- | --- |
| NCCC(=O)N[C@@H](Cc1cc(O)c(O)c(SC[C@H](NC(=O)CC[C@H](N)C(=O)O)C(=O)NCC(=O)O)c1)C(=O)O | 2.2 |
| NCCC(=O)NCCc1cc(O)c(O)c(SC[C@H](NC(=O)CC[C@H](N)C(=O)O)C(=O)NCC(=O)O)c1 | 4.9 |
| N[C@@H](CCC(=O)N[C@@H](CSc1cc(C[C@H](N)C(=O)O)cc(O)c1O)C(=O)NCC(=O)O)C(=O)O | 4.4 |
| N[C@@H](CSc1cc(C[C@H](N)C(=O)O)cc(O)c1O)C(=O)O | 2.9 |
| NCCc1cc(SC[C@H](NC(=O)CC[C@H](N)C(=O)O)C(=O)NCC(=O)O)c(O)c(O)c1SC[C@H](NC(=O)CC[C@H](N)C(=O)O)C(=O)NCC(=O)O | 7.6 |
| NCCc1cc(O)c(O)c(SC[C@H](NC(=O)CC[C@H](N)C(=O)O)C(=O)NCC(=O)O)c1 | 1 |
| C[C@@](Cc1cc(O)c(O)c(SC[C@H](NC(=O)CC[C@H](N)C(=O)O)C(=O)NCC(=O)O)c1)(NC(=O)CCN)C(=O)O | 5.2 |
| NCCC(=O)N[C@H](Cc1cc(O)c(O)c(SC[C@H](NC(=O)CC[C@H](N)C(=O)O)C(=O)NCC(=O)O)c1)C(=O)O | 8.2 |
| NCCC(=O)N[C@@H](Cc1cc(O)c(O)c(SC[C@H](N)C(=O)O)c1)C(=O)O | 2.5 |

###

Target: EGFR (human)
Details: mda-mb-468
pIC50: −log10 of the molar value.

| compound | pIC50 |
| --- | --- |
| C=C1CC(C)OC(=O)c2c(O)cc(OC)cc2C(=C)C(=C)CC(O)C(O)C(=O)C1=C (stereo unspecified) | < 4.52 |

###

Target: EGFR (human)
Conditions: A431

| chemical smiles | value unit | IC50 |
| --- | --- | --- |
| CCc1cc2cccc(C#CCCc3ccccc3)c2cc1CC | nM | 14 |

###

Biological target: EGFR (UniProt P00533)

| chemical smiles | test target | IC50 |
| --- | --- | --- |
| COc1cc(Nc2ccnc(Nc3ccc(COc4ccccc4)cc3)n2)cc(OC)c1OC | EGFR (UniProt P00533) | ≥ 10 µM |

###

Molecular target: UniProtKB P24941
Assay: Enzyme Assay
Entries annotated with measured IC50

| compound | bound type | IC50 / µM |
| --- | --- | --- |
| CN(C)Cc1ccc(N/C=C2\C(=O)Nc3ccc4ncccc4c32)cc1 | < | 1 |
| NC(=O)c1ccc(Nc2cc(C3=CC4OCOC4C=C3)n3ncnc3n2)cc1 (stereo not given) | > | 200 |
| Clc1cc(Cl)cc(Nc2nc(OCC3CCCCC3)c3nc[nH]c3n2)c1 | = | 12 |
| CCOC(=O)c1c[nH]c(/C=C2\C(=O)Nc3ccc4c(c32)CCOS4(=O)=O)c1C | = | 0.066 |
| N=C(N)NS(=O)(=O)c1ccc(N=Nc2c(N)n[nH]c2N)cc1 | = | 100 |

All figures here come from the Kinase Knowledgebase extract (Sharma et al. 2016).
